# Test system: CYP3A
# Test Name: Drug-drug interaction study: multiple-dose lonafarnib on pharmacokinetics of single-dose midazolam
# Measurement Parameters: human, in vivo, 100 mg
Readout Name: Tmax (min)
Answers are plain numbers, in min.

I'd like to know its Tmax. The molecule in question is Cc1ncc2n1-c1ccc(Cl)cc1C(c1ccccc1F)=NC2
30
